The measurements presented in this section are drawn from ChEMBL document CHEMBL5344483.

- System: SK-BR-3
- Measurement description: Anticancer activity against human SK-BR-3 cells assessed as growth inhibition at 100 microg/mL by SRB assay relative to control
- Assay type: functional
- Measurement setup: read-out: GI
Reported values of inhibition of growth at 100 µg/mL for individual entries
Observation type: inhibition of growth at 100 µg/mL (%)

• O=C(/C=C/c1ccc(Oc2ccc(Cl)nn2)cc1)c1ccc(OCc2ccc(OC(F)(F)F)cc2)cc1 = 67.4
• COc1ccc(C(=O)/C=C/c2ccc(Oc3ccc(Cl)nn3)cc2)cc1 = 66.7
• O=C1NC(=O)/C(=C\c2ccc(Oc3ccc(Cl)nn3)cc2)S1 = 63.8
• Cc1ccc(C(=O)/C=C/c2ccc(Oc3ccc(Cl)nn3)cc2)cc1 = 70.6
• O=C(/C=C/c1ccc(Oc2ccc(Cl)nn2)cc1)c1ccc(O)cc1 = 68.2
• O=C(/C=C/c1ccc(Oc2ccc(Cl)nn2)cc1)c1ccc([N+](=O)[O-])cc1 = 74.8
• O=C(/C=C/c1ccc(Oc2ccc(Cl)nn2)cc1)c1ccc(OCc2ccc(F)c(Cl)c2)cc1 = 49.8
• Nc1ccc(C(=O)/C=C/c2ccc(Oc3ccc(Cl)nn3)cc2)cc1 = 77.5
• O=C(/C=C/c1ccc(Oc2ccc(Cl)nn2)cc1)c1ccc(OCc2ccccc2)cc1 = 73.2
• CC(=O)Nc1cccc(C(=O)/C=C/c2ccc(Oc3ccc(Cl)nn3)cc2)c1 = 55.5

* * *

- System: FaDu
- Measurement description: Anticancer activity against human FaDu cells assessed as growth inhibition at 100 microg/mL by SRB assay relative to control
- Type: functional
- Measurement setup: read-out: GI
Rule: inhibition of growth at 100 µg/mL of 80% or more gives label 1; anything lower gives label 0.

• COc1cccc2c1C(=O)c1c(O)c3c(c(O)c1C2=O)C[C@@](O)(C(=O)CO)C[C@@H]3O[C@H]1C[C@H](N)[C@H](O)[C@H](C)O1 [DOXORUBICIN] = label 1
• COc1ccc(COc2ccc(C(=O)/C=C/c3ccc(Oc4ccc(Cl)nn4)cc3)cc2)cc1 = label 0
• CC(=O)Nc1cccc(C(=O)/C=C/c2ccc(Oc3ccc(Cl)nn3)cc2)c1 = label 0
• O=C(/C=C/c1ccc(Oc2ccc(Cl)nn2)cc1)c1ccc(OCc2ccc(OC(F)(F)F)cc2)cc1 = label 1
• O=C1NC(=O)/C(=C\c2ccc(Oc3ccc(Cl)nn3)cc2)S1 = label 0
• O=C(/C=C/c1ccc(Oc2ccc(Cl)nn2)cc1)c1ccc([N+](=O)[O-])cc1 = label 1
• O=C(/C=C/c1ccc(Oc2ccc(Cl)nn2)cc1)c1ccc(OCc2ccccc2)cc1 = label 1
• O=C(/C=C/c1ccc(Oc2ccc(Cl)nn2)cc1)c1ccc(OCc2ccc(F)c(Cl)c2)cc1 = label 0
• CC(=O)Nc1ccc(C(=O)/C=C/c2ccc(Oc3ccc(Cl)nn3)cc2)cc1 = label 1
• Nc1ccc(C(=O)/C=C/c2ccc(Oc3ccc(Cl)nn3)cc2)cc1 = label 1
• COc1ccc(C(=O)/C=C/c2ccc(Oc3ccc(Cl)nn3)cc2)cc1 = label 0
• O=C(/C=C/c1ccc(Oc2ccc(Cl)nn2)cc1)c1ccc(O)cc1 = label 1

* * *

- System: MDA-MB-468
- Measurement description: Cytotoxicity against human MDA-MB-468 cells by SRB assay
- Type: functional, cell-based
The molecules listed here are annotated with their IC50.
Observation type: IC50 (µM)

• COc1ccc(COc2ccc(C(=O)/C=C/c3ccc(Oc4ccc(Cl)nn4)cc3)cc2)cc1 = 93
• O=C(/C=C/c1ccc(Oc2ccc(Cl)nn2)cc1)c1ccccc1 = 26.4
• CC(=O)Nc1cccc(C(=O)/C=C/c2ccc(Oc3ccc(Cl)nn3)cc2)c1 = 30.1
• COc1ccc(C(=O)/C=C/c2ccc(Oc3ccc(Cl)nn3)cc2)cc1 = 112
• Cc1ccc(C(=O)/C=C/c2ccc(Oc3ccc(Cl)nn3)cc2)cc1 = 74.1
• O=C(/C=C/c1ccc(Oc2ccc(Cl)nn2)cc1)c1ccc([N+](=O)[O-])cc1 = 36.7
